Target: UniProt:Q5BJF2
Assay: Sigma 2 receptor radioligand competition binding
Conditions: Table 2, piperazinyl-tetrahydronaphthalene analogs; read-out: Ki (nM) Sig2R
Reported Ki values for the following compounds.
reported_property: Ki (nM)

>>> numeric_result("CCCN1CCN(c2cccc3c2CCCC3N(C)C(=O)OCc2ccccc2)CC1 (stereo not shown)")
26
>>> numeric_result("CCOC(=O)CCN1CCN(c2ccc3c(c2)CCCC3N(C)C(=O)OCc2ccccc2)CC1 (stereo not shown)")
91
>>> numeric_result("CCOC(=O)CCN1CCN(c2cccc3c2CCCC3N(C)C(=O)OCc2ccccc2)CC1 (stereo not shown)")
34
>>> numeric_result("CCCN1CCN(c2ccc3c(c2)CCCC3N(C)C(=O)OCc2ccccc2)CC1 (stereo not shown)")
13

----------
pKi: −log10 of the molar value.
Record: pKi reported on 5-HT1D (Homo sapiens, UniProt P28221).
reported_property: pKi

>>> numeric_result("CCCN1CCN(c2ccc3c(c2)C(N(CCC)C(=O)OCc2ccccc2)CCC3)CC1 (centres unmarked)")
5.96
>>> numeric_result("CCN(CC)C(=O)CCN1CCN(c2ccc3c(c2)C(N(C)C(=O)OCc2ccccc2)CCC3)CC1 (centres unmarked)")
5.87
>>> numeric_result("CN(C(=O)OCc1ccccc1)C1CCCc2ccc(N3CCN(C4CCCC4)CC3)cc21 (centres unmarked)")
6.29
>>> numeric_result("CN(C(=O)OCc1ccccc1)C1CCCc2ccc(N3CCN(CCCO)CC3)cc21 (centres unmarked)")
6.87
>>> numeric_result("CCCN(C(=O)OCc1ccccc1)C1CCCc2ccc(N3CCN(CCC(=O)OCC)CC3)cc21 (centres unmarked)")
5.94

----------
pKi: −log10 of the molar value.
System: 5-HT1B (Homo sapiens, UniProt P28222) | Read-out: pKi
reported_property: pKi

>>> numeric_result("CN(C(=O)OCc1ccccc1)C1CCCc2ccc(N3CCN(CCCO)CC3)cc21 (stereo not shown)")
6.58
>>> numeric_result("CCCN1CCN(c2ccc3c(c2)C(N(CCC)C(=O)OCc2ccccc2)CCC3)CC1 (stereo not shown)")
5.88
>>> numeric_result("CCN(CC)C(=O)CCN1CCN(c2ccc3c(c2)C(N(C)C(=O)OCc2ccccc2)CCC3)CC1 (stereo not shown)")
6.50
>>> numeric_result("CCCN(C(=O)OCc1ccccc1)C1CCCc2ccc(N3CCN(CCC(=O)OCC)CC3)cc21 (stereo not shown)")
6.36

----------
This section lists Ki readings for PBR (UniProt P16257).
reported_property: Ki (nM)

>>> numeric_result("CCCN(C(=O)OCc1ccccc1)C1CCCc2ccc(N3CCN(CCC(=O)OCC)CC3)cc21 (centres unmarked)")
1670
>>> numeric_result("CCCN1CCN(c2ccc3c(c2)C(N(C)C(=O)OCc2ccccc2)CCC3)CC1 (centres unmarked)")
8330
>>> numeric_result("CN(C(=O)OCc1ccccc1)C1CCCc2ccc(N3CCN(C4CCCC4)CC3)cc21 (centres unmarked)")
4060
>>> numeric_result("CN(Cc1cc(Cl)cc(Cl)c1)C1CCCc2ccc(N3CCOCC3)cc21 (centres unmarked)")
902
>>> numeric_result("CCN(CC)C(=O)CCN1CCN(c2ccc3c(c2)C(N(C)C(=O)OCc2ccccc2)CCC3)CC1 (centres unmarked)")
1200

----------
Molecular target: KOR (Homo sapiens)
pKi: −log10 of the molar value.
reported_property: pKi

>>> numeric_result("CN(CCCO)C1CCCc2ccc(-c3ccc(C(F)(F)F)cc3)cc21 (stereo not drawn) [MDW-1-144]")
6.81
>>> numeric_result("CCN(CC)C(=O)CCN1CCN(c2ccc3c(c2)C(N(C)C(=O)OCc2ccccc2)CCC3)CC1 (stereo not drawn) [MDW-1-213]")
5.27

----------
Biological target: H2 (Homo sapiens)
# Lookup of reported Ki keyed by entry
reported_property: Ki (nM)

>>> numeric_result("CN(C(=O)OCc1ccccc1)C1CCCc2ccc(N3CCN(CCCO)CC3)cc21 (stereo not shown) [MDW-1-177]")
291
>>> numeric_result("CN(C(=O)OCc1ccccc1)C1CCCc2ccc(N3CCN(C4CCCC4)CC3)cc21 (stereo not shown) [MDW-1-140]")
211
>>> numeric_result("CCCN(C(=O)OCc1ccccc1)C1CCCc2ccc(N3CCN(CCC(=O)OCC)CC3)cc21 (stereo not shown) [MDW-1-191]")
1290
>>> numeric_result("CCCN1CCN(c2ccc3c(c2)C(N(C)C(=O)OCc2ccccc2)CCC3)CC1 (stereo not shown) [MDW-2-76]")
302
>>> numeric_result("CCN(CC)C(=O)CCN1CCN(c2ccc3c(c2)C(N(C)C(=O)OCc2ccccc2)CCC3)CC1 (stereo not shown) [MDW-1-213]")
333
>>> numeric_result("CCCN1CCN(c2ccc3c(c2)C(N(CCC)C(=O)OCc2ccccc2)CCC3)CC1 (stereo not shown) [MDW-1-196]")
1040
>>> numeric_result("CN(CCCO)C1CCCc2ccc(-c3ccc(C(F)(F)F)cc3)cc21 (stereo not shown) [MDW-1-144]")
327

----------
Molecular target: sigma 1 receptor (Homo sapiens)
Test: Sigma 1 receptor radioligand competition binding
Conditions: Table 5; Cheng-Prusoff from best fit IC50; read-out: Ki Sigma 1
reported_property: Ki (nM)

>>> numeric_result("CN(Cc1ccccc1)C1CCCc2cc(N3CCOCC3)ccc21 (centres unmarked) [MDW-1-129]")
223
>>> numeric_result("CN(CCCO)C1CCCc2ccc(-c3ccc(C(F)(F)F)cc3)cc21 (centres unmarked) [MDW-1-144]")
1270

----------
Molecular target: sigma 2 receptor (Homo sapiens)
Test: Sigma 2 receptor radioligand competition binding
Conditions: Table 1; ratio of Sig1R Ki to Sig2R Ki
reported_property: Ki ratio Sig1R/Sig2R

>>> numeric_result("CCOC(=O)CCN1CCN(c2ccc3c(c2)C(N(CC)C(=O)OCc2ccccc2)CCC3)CC1 (centres unmarked) [MDW-1-190]")
166
>>> numeric_result("CN(C(=O)OCc1ccccc1)C1CCCc2ccc(N3CCN(C4CCC4)CC3)cc21 (centres unmarked) [MDW-1-162]")
22
>>> numeric_result("CN1CCN(c2ccc3c(c2)C(N(C)C(=O)OCc2ccccc2)CCC3)CC1 (centres unmarked) [MDW-1-93]")
10
>>> numeric_result("CN(C(=O)OCc1ccccc1)C1CCCc2ccc(N3CCN(CCCO)CC3)cc21 (centres unmarked) [MDW-1-177]")
23
>>> numeric_result("CC(C)N1CCN(c2ccc3c(c2)C(N(C)C(=O)OCc2ccccc2)CCC3)CC1 (centres unmarked) [MDW-1-167]")
27
>>> numeric_result("CN(C(=O)OCc1ccccc1)C1CCCc2ccc(N3CCN(C4CCCCC4)CC3)cc21 (centres unmarked) [MDW-1-205]")
8
>>> numeric_result("CN(C(=O)OCc1ccccc1)C1CCCc2ccc(N3CCN(C4CCCC4)CC3)cc21 (centres unmarked) [MDW-1-140]")
41
>>> numeric_result("CCN(CC)C(=O)CCN1CCN(c2ccc3c(c2)C(N(C)C(=O)OCc2ccccc2)CCC3)CC1 (centres unmarked) [MDW-1-213]")
292

----------
Target: sigma 2 receptor (Homo sapiens)
Test: Sigma 2 receptor radioligand competition binding
Settings: Table 5; Cheng-Prusoff from best fit IC50; read-out: Ki Sigma 2
// values below are reported Ki
reported_property: Ki (nM)

>>> numeric_result("CCN(CC)C(=O)CCN1CCN(c2ccc3c(c2)C(N(C)C(=O)OCc2ccccc2)CCC3)CC1 (centres unmarked)")
7.2
>>> numeric_result("CN(C(=O)OCc1ccccc1)C1CCCc2ccc(N3CCN(CCCO)CC3)cc21 (centres unmarked)")
21
>>> numeric_result("CN(C(=O)OCc1ccccc1)C1CCCc2ccc(N3CCN(C4CCCC4)CC3)cc21 (centres unmarked)")
2.1
>>> numeric_result("CN(Cc1ccccc1)C1CCCc2cc(N3CCOCC3)ccc21 (centres unmarked)")
1170
>>> numeric_result("CN(Cc1cc(Cl)cc(Cl)c1)C1CCCc2ccc(N3CCOCC3)cc21 (centres unmarked)")
522
>>> numeric_result("CCCN1CCN(c2ccc3c(c2)C(N(C)C(=O)OCc2ccccc2)CCC3)CC1 (centres unmarked)")
5.5
>>> numeric_result("CCCN1CCN(c2ccc3c(c2)C(N(CCC)C(=O)OCc2ccccc2)CCC3)CC1 (centres unmarked)")
9.4
>>> numeric_result("CN(CCCO)C1CCCc2ccc(-c3ccc(C(F)(F)F)cc3)cc21 (centres unmarked)")
50

----------
Molecular target: M5 (Homo sapiens)
Sequence (P08912 1-532): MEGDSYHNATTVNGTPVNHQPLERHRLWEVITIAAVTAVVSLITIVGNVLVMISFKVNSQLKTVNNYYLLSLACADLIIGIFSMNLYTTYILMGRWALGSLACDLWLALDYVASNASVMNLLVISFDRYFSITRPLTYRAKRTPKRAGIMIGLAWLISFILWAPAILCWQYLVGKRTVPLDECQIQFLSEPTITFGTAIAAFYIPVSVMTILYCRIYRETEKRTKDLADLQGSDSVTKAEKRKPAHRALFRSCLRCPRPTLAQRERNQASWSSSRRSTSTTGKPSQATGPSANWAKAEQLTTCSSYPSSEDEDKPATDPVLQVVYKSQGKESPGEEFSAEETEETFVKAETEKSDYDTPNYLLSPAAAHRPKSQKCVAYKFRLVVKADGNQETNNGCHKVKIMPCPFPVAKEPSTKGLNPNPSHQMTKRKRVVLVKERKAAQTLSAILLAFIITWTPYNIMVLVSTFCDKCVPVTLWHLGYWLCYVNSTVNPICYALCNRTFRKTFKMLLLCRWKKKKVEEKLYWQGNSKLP
reported_property: Ki

>>> result("CN(C(=O)OCc1ccccc1)C1CCCc2ccc(N3CCN(C4CCCC4)CC3)cc21 (stereo not shown)")
"3.69 µM"
